biological target: T1, MUC1 peptide (15 aa+cystein, APDTRPAPGSTAPPAC) (human); test: SPR, scFv 2-200 nM over immobilized MUC1 peptide, Chip 1 (47 RU)
T1 construct: If the listing entry has only 15 residues, a C-terminal Cys must be added; Immobilized on the SPR chip; also called synthetic MUC1 peptide
T1 peptide: APDTRPAPGSTAPPAC
Consider the following binders; for each one, report its Ka.
Please append the unit to your numeric answer.

Supply reported Ka belonging to this binder: HT186-B7 scFv (scFv, scFv as VH-truncated CH1-linker-VL-truncated CL, made in the E. coli periplasm and purified by its His-tag; not shown: C-terminal His-tag used for purification and detection) scFv: QMQLVQSGAEVKKPGASVKVSCKASGYTFTGHYMHWVRQAPGQGLEWMGWIDPVTGGTKYAQNFQGWVTMTRDTSIRTAYMELSRLRSDDTAMYYCAREVTGDRGQFDKWGQGTLVTVASASTKGPSVKLEEGEFSEARVQSVLTQPPSVSVAPGKTARITCGGNNIGSKSVHWYQQKPGQAPALVIYYGSYRPSGIPERFSGSNYGNTATLTIRRVEAGDEADYYCQVWDSSSDWVFGGGTKLTVLGQPKAAPSVTLFPPS
7.5e+08 M⁻¹

Supply reported Ka belonging to this binder: HT186-D11 scFv (scFv, scFv as VH-truncated CH1-linker-VL-truncated CL, made in the E. coli periplasm and purified by its His-tag; not shown: C-terminal His-tag used for purification and detection) scFv: QMQLVQSEAELKKPGASVKVSCKASGYSFTGHYMHWVRQAPGQGLEWMGWIDPVTGGTKYAQNFQGWVTMTRDTSIRTAYLELSRLRSDDTAMYYCAREVTGDRGQFDKWGQGTLVTVASSSTKGPSVKLEEGEFSEARVQSVLTQPPSVSVAPGKTARITCGGNNIGSKSVHWYQQKPGQAPALVIYYGSNRPSGIPERFSGSNSGNTATLTISRVEAGDEADYYCQVWDSSSDWVFGGGTKLTVLGQPKAAPSVTLFPSS
1.8e+09 M⁻¹

Supply reported Ka belonging to this binder: HT220-M-G8 scFv (scFv, scFv as VH-truncated CH1-linker-VL-truncated CL, made in the E. coli periplasm and purified by its His-tag; not shown: C-terminal His-tag used for purification and detection) scFv: QMQLVQSGAEVMKPGASVKVSCKASGYSFTGHYMHWVRHAPGQGLEWMGWIDPVTGSTKYAQNFQGWVTMTRDTSISTAYMELSRLRSDDTAMYYCAREVTGDRGQFDKWGQGTLVTVASASTKGPSVKLEEGEFSEARVQSVLTQPPSVSVAPGKTARITCGGNNIGSKSVHWYQQKPGQAPVLVIYYGSDRPSGIPERFSGSNTGNMATLTISRVEAGDEADYYCQVWDSSSDWVFGGGTKLTVLGQPKAAPSVTLFPPS
2.3e+08 M⁻¹
